Hello, the source for this data is PubChem BioAssay (NCI), in case you need it.

Assay procedure: NCI Yeast Anticancer Drug Screen. Data for the sgs1 mgt1 strain (AID 161);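 also: 0% = growth of cultures given vehicle only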
Assay conditions: S. cerevisiae sgs1 mgt1 strain, at 50.0 µM
The panel holds about 79,000 compounds, 15% with a hit somewhere; the sample as a whole holds those more often. Active and inactive are the calls of the source. Rule as the data show it: active = growth inhibition above about 70%; inactive = the rest.
Permitted responses: yes (1) for active, no (0) for inactive

Solved cases below.
Cc1cc(S(=O)(=O)O)c(NC(=O)C(=O)C2C=CCS2(=O)=O)cc1Cl (stereo unspecified) | no (0)
Cc1cc(=O)n2cn[nH]c2n1 | no (0)
CCOC(=O)C(C(=O)OCC)C(C)(C)C | no (0)
C=C1CC[C@H]2C(C)=CC[C@H]3C(=C)C(=O)O[C@@H]3[C@@H]12 | no (0)
Cc1ccc(/C=C/C(=O)c2sc(C(N)=S)nc2C)cc1 | no (0)

Q: Could you please tell me the result logged for `Fc1ccc(CSC(=S)Nc2ccc(I)cc2)cc1` in this assay?
A: yes (1)

Q: Could you please tell me the result logged for O=[N+]([O-])c1ccc(N/N=C/C2CC=CCC2)c([N+](=O)[O-])c1 (stereo unspecified) in this assay?
A: no (0)

Q: Could you please tell me the result logged for `CC(C)(C)C1=CC(=N/S(=O)(=O)c2ccccc2)/C(N=[N+]=[N-])=C(Cl)C/1=N\S(=O)(=O)c1ccccc1` in this assay?
A: no (0)

Q: Could you please tell me the result logged for `CCC(=O)Oc1ccccc1OC` in this assay?
A: no (0)

Q: Could you please tell me the result logged for CC(O)C(=O)N1CCOCC1 (stereo unspecified) in this assay?
A: no (0)

Q: Could you please tell me the result logged for `CCOc1ccc(NC(=O)C(=O)CC(=O)C2=C(C)Nc3ccccc3S2)cc1` in this assay?
A: no (0)

###

Form field: growth inhibition (one value per entry).
Assay procedure: NCI Yeast Anticancer Drug Screen. Data for the mec2-1 strain (AID 157)
Assay conditions: S. cerevisiae mec2-1 strain, at 50.0 µM, hits give high values
Compounds without any hit were thinned out: in the full panel of roughly 79,000, 15% have a hit.
Form entry: value (%) — number only.

Previously resolved entries follow.
O=S1(=O)c2ccccc2N(O)C2=NCCN21 | -46.7
Cc1cc(S(=O)(=O)/N=C(/NN)Nc2ccc(Cl)cc2)c(S)cc1Cl | 8.15
Nc1nc(F)nc2c1ncn2C1OC(CO)C(O)C1O (stereo not drawn) | 2.25

Q: Report measured growth inhibition; entry is `CCCCCCCCCCCCCCCCNc1nc(=S)cc(C)[nH]1`
A: -27.6

Q: Report measured growth inhibition; entry is CCCCCCC(Br)CCCC (stereo not drawn)
A: -8.85

Q: Report measured growth inhibition; entry is `Cc1cc(=O)c2cc(Br)cc(Br)c2[nH]1`
A: -13.8

Q: Report measured growth inhibition; entry is `OCC(CCl)(CCl)CCl`
A: 18.1

Q: Report measured growth inhibition; entry is CCOC(=O)C1(Cc2ccc3c(c2)CCC3)Cc2cc3c(cc2C1=O)CCC3 (stereo not drawn)
A: -28.1

###

Assay procedure: NCI Yeast Anticancer Drug Screen. Data for the mlh1 rad18 strain (AID 175)
Assay conditions: S. cerevisiae mlh1 rad18 strain growth inhibition; at 50.0 µM
Procedure: Growth inhibition of yeast strains with defined genetic alterations is measured as a screen for potential anti-cancer activity. Selected strains with alterations in DNA damage repair or cell cycle control were exposed to compounds and growth inhibition was measured relative to vehicle treated controls. The strain used in this assay is mlh1 rad18
This is part of a sample that, as a whole, favours compounds with a hit. Of some 79,000 tested, about 15% had one in any assay. Activity calls are given as the source filed them. Cut-off read from the data, not from the text of the source: active = growth inhibition above about 70%; inactive = the rest.
Permitted responses: label 1 (active), label 0 (inactive)

CCN(CC)CCC(=O)c1ccc(Oc2ccc(Cl)cc2)cc1 | label 1
COc1cc(CNc2nc3c(N)cc(C(F)(F)F)cc3nc2-c2ccccc2)cc(OC)c1OC | label 0
COC(=O)c1ccc(C(=O)c2ccc(OC)cc2OC)cc1 | label 0
Cc1c2oc3c(C)ccc(C(=O)NCCc4ccco4)c3nc-2c(C(=O)NCCc2ccco2)c(N)c1=O | label 0

Now let's try a different one.
Q: Could you please tell me the result logged for Cc1cc(OC(C)C)cc(C)c1C(=O)OCC(C)N1CCCC1 (stereo unspecified) in this assay?
A: label 0

###

Assay procedure: NCI Yeast Anticancer Drug Screen. Data for the sgs1 mgt1 strain (AID 161);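 also: 0% = growth of cultures given vehicle only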
Assay conditions: S. cerevisiae sgs1 mgt1 strain, at 50.0 µM, hits give high values
This is part of a sample that, as a whole, favours compounds with a hit. Of some 79,000 tested, about 15% had one in any assay.
Measured metric: growth inhibition (%)
Form entry: value (%) — number only.

Previously resolved entries follow.
Cc1ccc(-n2c(=S)n(-c3ccccc3C)c3nc4ccccc4nc2/c3=N\Nc2ccccc2)cc1 | -14.8
C=C1C(=O)OC2/C=C(\C)CC(O)/C=C(/C)CC(OC(=O)C(O)(CO)C(C)S)C12 (centres undefined) | -22.4
O=[N+]([O-])c1cc(Cl)cc2c1nc(NCCCO)c1ccccc12 | -0.3
Nc1nc(-c2ccccc2)cc(-c2ccc(F)cc2)c1-c1ccc(Cl)cc1 | 20.4
O=Cc1cc2c(cc1-c1c(C=O)ccc3c1OCO3)OCO2 | 46.9

Q: Report measured growth inhibition; entry is CC(=O)OC/C(=C/C#N)C1CCC2C3CCC4CC(OC(C)=O)CCC4(C)C3CCC12C (centres undefined)
A: 45.5

Q: Report measured growth inhibition; entry is `CC(=O)c1cc(-c2ccccn2)c(=O)n2ccccc12`
A: -19.9

###

Form field: growth inhibition (one value per entry).
Assay procedure: NCI Yeast Anticancer Drug Screen. Data for the mlh1 rad18 strain (AID 175)
Assay conditions: S. cerevisiae mlh1 rad18 strain growth inhibition; at 50.0 µM; hits give high values
The panel holds about 79,000 compounds, 15% with a hit somewhere; the sample as a whole holds those more often.
Form entry: value (%) — number only.

Previously resolved entries follow.
Cc1n[nH]c(=S)n1N | -3.5
C=C1CC2C(=O)N(c3ccccc3)C(=O)C2CC1n1[nH]c(=O)n(Cc2ccccc2)c1=O (configuration not stated) | -5.7
O=C(CC(=O)c1cccc([N+](=O)[O-])c1)C(=O)Nc1ccccc1 | -5.55
c1ccc(CNC2Cc3ccccc3C2)cc1 | -2.4
N#C/C=C(\N)C(C#N)C#N | 4.8

Q: Report measured growth inhibition; entry is CC1=NN(C(=O)c2ccccc2)C(=O)C1N=Nc1ccc([N+](=O)[O-])cc1 (configuration not stated)
A: -3.35

Q: Report measured growth inhibition; entry is CC(=O)OC1CC1(Br)Br (configuration not stated)
A: 5.2

Q: Report measured growth inhibition; entry is `COc1cccc(OC)c1/C=C1\N=C(c2ccccc2)OC1=O`
A: -9.25

Q: Report measured growth inhibition; entry is `CN(C)c1ccc(/C=C2\N=C(c3ccc([N+](=O)[O-])cc3)OC2=O)cc1`
A: 7.55

Q: Report measured growth inhibition; entry is `Cc1ccc(S(=O)(=O)Nn2nnnc2N)cc1`
A: 7.25

Q: Report measured growth inhibition; entry is CCC1SCC(=O)N1c1nncs1 (configuration not stated)
A: 2.95

Q: Report measured growth inhibition; entry is COC(=O)C(C(=O)C(=O)Nc1ccc(Br)cc1)c1nc2ccc(Cl)cc2[nH]c1=O (configuration not stated)
A: 2.8

###

Form field: growth inhibition (one value per entry).
Assay procedure: NCI Yeast Anticancer Drug Screen. Data for the mlh1 rad18 strain (AID 175)
Assay conditions: S. cerevisiae mlh1 rad18 strain growth inhibition; at 50.0 µM; hits give high values
About 79,000 compounds went through this panel and 15% of them were active in at least one assay; those are over-represented in the sample as a whole.
Form entry: value (%) — number only.

Previously resolved entries follow.
COc1cccc(C=NC23CC4CC(CC(C4)C2)C3)c1 | -6.8
CCN(CC)CCN(C(=Nc1ccccc1)N1CCOCC1)c1ccccc1 | -11.9
CCOc1ccccc1NC(=O)CC1Sc2ccccc2NC1=O (stereo unspecified) | 21.5
CC(Sc1ccc([N+](=O)[O-])cn1)C(=O)O (stereo unspecified) | 30.9
Oc1ccccc1/C=N\Sc1ccc(Br)cc1 | 17
CC(C)CCCCCCCCCCCCC(=O)NCC(=O)NC1C(C)OC(Nc2ncnc3c2ncn3C)C(O)C1O (stereo unspecified) | 11.4
CC(C)(C)c1nc2c(o1)C(=Nc1ccc(F)cc1)c1ccccc1C2=O | -2.5
CC(C)(C)C(=O)OCCN(CCOC(=O)C(C)(C)C)C(=O)COC(=O)C(C)(C)C | 20.4
OCc1ccc(Cl)cc1Cl | -27.9
COc1cccc(-c2nc(-c3cnccn3)n(C3OC(CO)C(O)C3O)n2)c1 (stereo unspecified) | -22.6

Okay, next one:
Q: Report measured growth inhibition; entry is Cc1ccccc1OCC1COCN(C(C)(C)CO)CO1 (stereo unspecified)
A: 16.8

###

Assay procedure: NCI Yeast Anticancer Drug Screen. Data for the sgs1 mgt1 strain (AID 161);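 also: 0% = growth of cultures given vehicle only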
Assay conditions: S. cerevisiae sgs1 mgt1 strain, at 50.0 µM, hits give high values
Compounds without any hit were thinned out: in the full panel of roughly 79,000, 15% have a hit.
Form field: growth inhibition (one value per entry).
Form entry: value (%) — number only.

Previously resolved entries follow.
O=S1c2ccc(Cl)cc2CC(SSC2Cc3cc(Cl)ccc3S(=O)c3ccccc32)c2ccccc21 (stereo not drawn) | -7.65
Cc1cc(C)c(-c2c(C)cc(C)c([N+](=O)[O-])c2C)c(C)c1N | 98.4
CCOC(=O)c1ccc(NN=NC(C)(C)C)cc1 | -15.2
Cn1c(=O)oc2cc([N+](=O)[O-])c(Cl)cc21 | -0.85
CNc1nc(SCc2ccccc2)c2ncn(C3OC(CO)C(O)C3O)c2n1 (stereo not drawn) | 16.9
Cc1ccc(C)c(NC(=O)C(=O)C2C(=O)N(c3ccccc3)N=C2N)c1 (stereo not drawn) | -1.25

Q: Report measured growth inhibition; entry is `NNC(=O)/C(=C/c1ccc(Cl)cc1Cl)NC(=O)c1ccccc1`
A: 39.3

Q: Report measured growth inhibition; entry is CCB1OC2C(COC(C)=O)OC(OC(C)=O)C2O1 (stereo not drawn)
A: -9.55

Q: Report measured growth inhibition; entry is `O=C(Nc1ccc([N+](=O)[O-])cc1)Oc1c(Cl)cc(Cl)c(Cl)c1[N+](=O)[O-]`
A: 57.2

Q: Report measured growth inhibition; entry is `CCCCCCCCCC(=O)N/N=C/c1cccs1`
A: 3.9

Q: Report measured growth inhibition; entry is CCS(=O)CCCN1CCc2ccccc2C1 (stereo not drawn)
A: 13.9
